Tested on: Ba/F3 EML4-ALK L1152P cell line
Assay: Cell proliferation assay (CellTiter-Glo)
Assay type: cell-based
Details: Mus musculus, 72 hours
pIC50: −log10 of the molar value.

[
  {
    "substance smiles": "C[C@H]1CNC(=O)c2cnn3ccc(nc23)N[C@H](C)c2cc(F)ccc2O1",
    "experimental system": "Ba/F3 EML4-ALK L1152P cell line",
    "pIC50": 7.07
  }
]

====

Target: FAK (Homo sapiens, UniProt Q05397)
Sequence (Q05397 whole entry): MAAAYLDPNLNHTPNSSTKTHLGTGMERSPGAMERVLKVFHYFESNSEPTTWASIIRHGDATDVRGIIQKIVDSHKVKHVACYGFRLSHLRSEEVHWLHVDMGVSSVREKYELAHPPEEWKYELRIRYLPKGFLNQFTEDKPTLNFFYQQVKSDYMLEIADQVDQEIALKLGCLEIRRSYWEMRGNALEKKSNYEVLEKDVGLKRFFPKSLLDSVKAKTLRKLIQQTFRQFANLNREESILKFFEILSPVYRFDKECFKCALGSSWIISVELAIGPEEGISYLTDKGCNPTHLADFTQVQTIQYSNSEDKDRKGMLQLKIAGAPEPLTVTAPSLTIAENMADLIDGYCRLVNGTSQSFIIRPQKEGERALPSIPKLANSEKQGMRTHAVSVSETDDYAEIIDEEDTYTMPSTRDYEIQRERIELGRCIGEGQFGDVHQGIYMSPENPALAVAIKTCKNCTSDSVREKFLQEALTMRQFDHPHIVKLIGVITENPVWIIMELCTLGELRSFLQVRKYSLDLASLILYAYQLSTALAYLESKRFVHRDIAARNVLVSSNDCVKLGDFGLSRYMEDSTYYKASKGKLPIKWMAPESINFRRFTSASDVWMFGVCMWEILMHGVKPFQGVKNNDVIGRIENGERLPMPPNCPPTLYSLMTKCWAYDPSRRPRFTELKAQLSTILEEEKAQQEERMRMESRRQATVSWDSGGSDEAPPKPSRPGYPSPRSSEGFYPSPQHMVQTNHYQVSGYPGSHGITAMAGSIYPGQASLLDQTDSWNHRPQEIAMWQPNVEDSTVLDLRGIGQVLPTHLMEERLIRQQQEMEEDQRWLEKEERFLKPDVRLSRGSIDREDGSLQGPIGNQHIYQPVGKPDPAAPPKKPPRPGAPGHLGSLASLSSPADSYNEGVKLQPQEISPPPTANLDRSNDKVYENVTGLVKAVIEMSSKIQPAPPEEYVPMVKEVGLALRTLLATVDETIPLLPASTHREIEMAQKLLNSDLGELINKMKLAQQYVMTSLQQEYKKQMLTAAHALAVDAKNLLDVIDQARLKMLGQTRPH
Assay: Immunoblotting cellular kinase phosphorylation assay, NCI-H2228 cells
Conditions: 4 hours treatment; read-out: FAK phosphorylation of NCI-H2228 cell line IC50

[
  {
    "substance smiles": "C[C@H]1CNC(=O)c2cnn3ccc(nc23)N[C@H](C)c2cc(F)ccc2O1",
    "experimental system": "FAK (Homo sapiens, UniProt Q05397)",
    "IC50 (nM)": 100
  }
]

====

Biological target: GRK7 (Homo sapiens, UniProt Q8WTQ7)
Sequence (Q8WTQ7 1-553): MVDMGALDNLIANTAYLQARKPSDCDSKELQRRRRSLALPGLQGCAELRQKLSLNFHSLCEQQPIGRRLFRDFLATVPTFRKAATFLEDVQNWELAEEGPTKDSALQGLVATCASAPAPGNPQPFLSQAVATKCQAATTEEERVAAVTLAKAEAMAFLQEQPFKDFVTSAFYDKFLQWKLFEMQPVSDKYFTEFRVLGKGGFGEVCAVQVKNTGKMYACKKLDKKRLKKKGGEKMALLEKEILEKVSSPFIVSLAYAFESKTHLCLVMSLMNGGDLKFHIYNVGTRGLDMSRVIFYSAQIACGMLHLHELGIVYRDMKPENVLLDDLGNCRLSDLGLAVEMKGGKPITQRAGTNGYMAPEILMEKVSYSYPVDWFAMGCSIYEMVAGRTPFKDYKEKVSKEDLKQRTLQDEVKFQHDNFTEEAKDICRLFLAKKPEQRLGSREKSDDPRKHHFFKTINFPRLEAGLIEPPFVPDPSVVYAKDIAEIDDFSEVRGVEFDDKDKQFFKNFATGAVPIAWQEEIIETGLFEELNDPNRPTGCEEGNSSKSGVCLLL
pIC50: −log10 of the molar value.
parameter: pIC50

[
  {
    "compound": "C[C@H]1CNC(=O)c2cnn3ccc(nc23)N[C@H](C)c2cc(F)ccc2O1 [Compound 1]",
    "observed value": 7.45
  }
]

====

Target: FYN (Homo sapiens)
Sequence (P06241 whole entry): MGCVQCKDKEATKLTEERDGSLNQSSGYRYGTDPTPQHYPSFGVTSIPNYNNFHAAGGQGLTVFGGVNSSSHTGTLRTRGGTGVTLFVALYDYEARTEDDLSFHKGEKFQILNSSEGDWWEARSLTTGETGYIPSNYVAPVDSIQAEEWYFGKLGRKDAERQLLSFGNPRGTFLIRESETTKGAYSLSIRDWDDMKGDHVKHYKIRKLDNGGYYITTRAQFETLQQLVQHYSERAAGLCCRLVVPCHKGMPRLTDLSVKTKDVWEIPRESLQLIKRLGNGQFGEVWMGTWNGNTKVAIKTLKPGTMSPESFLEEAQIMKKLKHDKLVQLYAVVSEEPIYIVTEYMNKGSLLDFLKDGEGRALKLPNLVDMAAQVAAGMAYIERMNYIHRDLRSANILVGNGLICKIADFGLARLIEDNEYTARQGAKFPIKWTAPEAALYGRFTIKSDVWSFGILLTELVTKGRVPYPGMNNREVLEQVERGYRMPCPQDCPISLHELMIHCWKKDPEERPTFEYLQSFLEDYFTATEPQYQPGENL
pIC50: −log10 of the molar value.

[
  {
    "substance smiles": "C[C@H]1CNC(=O)c2cnn3ccc(nc23)N[C@H](C)c2cc(F)ccc2O1",
    "experimental system": "FYN (Homo sapiens)",
    "pIC50": 8.98
  }
]

====

Molecular target: TYK2 (Homo sapiens, UniProt P29597)
Sequence (P29597 whole entry): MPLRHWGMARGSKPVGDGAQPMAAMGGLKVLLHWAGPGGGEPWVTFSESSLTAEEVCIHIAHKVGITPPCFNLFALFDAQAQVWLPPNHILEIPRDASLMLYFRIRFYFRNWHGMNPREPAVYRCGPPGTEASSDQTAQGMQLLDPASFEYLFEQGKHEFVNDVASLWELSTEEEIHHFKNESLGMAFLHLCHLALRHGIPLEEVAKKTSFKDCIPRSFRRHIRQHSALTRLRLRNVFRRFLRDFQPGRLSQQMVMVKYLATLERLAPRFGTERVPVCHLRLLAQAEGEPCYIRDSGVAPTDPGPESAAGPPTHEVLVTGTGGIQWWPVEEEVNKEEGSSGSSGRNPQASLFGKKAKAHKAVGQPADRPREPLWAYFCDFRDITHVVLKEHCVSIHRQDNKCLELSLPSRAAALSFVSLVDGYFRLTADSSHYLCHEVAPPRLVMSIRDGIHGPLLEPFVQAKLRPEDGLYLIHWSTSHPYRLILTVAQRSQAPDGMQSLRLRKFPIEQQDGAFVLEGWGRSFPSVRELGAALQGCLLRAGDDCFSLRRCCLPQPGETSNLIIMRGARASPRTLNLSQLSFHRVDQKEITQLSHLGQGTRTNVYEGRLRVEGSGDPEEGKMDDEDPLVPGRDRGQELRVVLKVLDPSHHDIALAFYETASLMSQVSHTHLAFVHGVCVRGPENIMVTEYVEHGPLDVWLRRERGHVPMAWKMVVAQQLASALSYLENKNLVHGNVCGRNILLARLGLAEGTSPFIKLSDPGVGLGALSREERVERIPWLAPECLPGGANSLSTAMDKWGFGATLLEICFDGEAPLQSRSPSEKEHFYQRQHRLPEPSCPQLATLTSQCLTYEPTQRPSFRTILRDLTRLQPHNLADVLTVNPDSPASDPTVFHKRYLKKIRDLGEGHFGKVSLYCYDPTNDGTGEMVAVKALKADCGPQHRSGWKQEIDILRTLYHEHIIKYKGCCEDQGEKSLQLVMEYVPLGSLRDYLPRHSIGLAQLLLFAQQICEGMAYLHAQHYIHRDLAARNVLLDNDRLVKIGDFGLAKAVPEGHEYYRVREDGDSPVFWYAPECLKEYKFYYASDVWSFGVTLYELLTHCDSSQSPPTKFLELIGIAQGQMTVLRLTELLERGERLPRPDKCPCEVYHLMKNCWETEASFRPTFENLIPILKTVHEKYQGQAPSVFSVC
pIC50: −log10 of the molar value.

[
  {
    "substance smiles": "C[C@H]1CNC(=O)c2cnn3ccc(nc23)N[C@H](C)c2cc(F)ccc2O1",
    "experimental system": "TYK2 (Homo sapiens, UniProt P29597)",
    "pIC50": 7.67
  }
]

====

Target: SNARK (Homo sapiens, UniProt Q9H093)
Sequence (Q9H093 1-628): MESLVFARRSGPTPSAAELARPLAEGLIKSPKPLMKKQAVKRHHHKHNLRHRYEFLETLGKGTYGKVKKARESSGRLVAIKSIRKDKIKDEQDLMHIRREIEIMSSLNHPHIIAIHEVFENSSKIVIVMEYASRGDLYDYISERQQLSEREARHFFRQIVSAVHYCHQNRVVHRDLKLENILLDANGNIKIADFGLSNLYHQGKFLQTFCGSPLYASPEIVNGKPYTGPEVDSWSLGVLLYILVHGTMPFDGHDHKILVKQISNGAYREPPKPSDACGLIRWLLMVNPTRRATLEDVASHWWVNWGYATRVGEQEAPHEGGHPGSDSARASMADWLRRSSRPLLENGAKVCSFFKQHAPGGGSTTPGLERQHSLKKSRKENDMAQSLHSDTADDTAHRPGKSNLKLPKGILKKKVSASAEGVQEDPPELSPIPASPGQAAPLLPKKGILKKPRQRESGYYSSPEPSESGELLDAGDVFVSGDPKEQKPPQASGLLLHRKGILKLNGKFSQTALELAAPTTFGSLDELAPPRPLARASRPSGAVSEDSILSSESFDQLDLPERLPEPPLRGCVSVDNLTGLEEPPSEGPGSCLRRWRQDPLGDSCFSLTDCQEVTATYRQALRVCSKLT
parameter: IC50 (µM)

[
  {
    "compound": "C[C@H]1CNC(=O)c2cnn3ccc(nc23)N[C@H](C)c2cc(F)ccc2O1 [Compound 1]",
    "parameter": "IC50",
    "observed value": 0.013
  }
]
